The measurements presented in this section are drawn from ChEMBL document CHEMBL1201862.

Test system: TK-10
Assay: NCI tumour cell line growth inhibition, 48 h
Active and inactive are the calls of the source. Cut-off read from the data, not from the text of the source: active = GI50 up to about 1.1 µM and inactive = higher.
Outcomes you can answer with include only these: active, inactive

compound="COC(=O)C(C(=O)C(=O)Nc1ccccc1C(C)=O)c1nc2ccc(Cl)cc2nc1O (centres undefined)" class_assignment=inactive
compound="O=C(Nc1ccccc1[N+](=O)[O-])C(=O)C(C(=O)c1ccccc1-c1ccccc1)C1OC(=O)c2ccccc21 (centres undefined)" class_assignment=inactive
compound=Cc1cc(C)c2c(n1)S(=O)(=O)N(CCCN1CCN(c3cccc(C(F)(F)F)c3)CC1)C(C(=O)c1ccccc1)=C2O class_assignment=inactive
compound="CC1C[C@]2(C)C(=O)Nc3ccccc3[C@@H]2Nc2ccccc21 (some centres undefined)" class_assignment=inactive
compound=O=C(Nc1ccccc1)c1cc(S(=O)(=O)N2CCNNC2=O)c(S)cc1Cl class_assignment=inactive
compound=CCCCCCCCCCCCCCCC/C(C(=O)OC)=C(/O)C(=O)OCC class_assignment=inactive
compound=CNC(=O)N(CCC#N)CCCN(C(=O)N(C)C)c1ccccc1 class_assignment=inactive
compound="CCOC(=O)CCC(NC(=O)Cc1ccc(Oc2nc3ccccc3nc2-c2cccs2)cc1)C(=O)OCC (centres undefined)" class_assignment=inactive

input: Would you mind telling me which call this test gave `OCc1ccn2c1[C@@H](O)CC2` ?
output: inactive

input: For `S=c1sc2ccccc2n1CN1CCN(Cc2ccccc2)CC1` , which call appears in the assay record?
output: inactive
